B1: GNAI1 (parent)
chain: WIHCFEGVTAIIFCVALSDYDLVL

Variants of: B1
Assay: protein stability index of a GFP-peptide fusion (GPS, HEK-293T) (PSI 1-6); higher = more stable;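 further: lentivirally expressed fusions sorted by FACS into six bins by GFP to DsRed ratio, PSI derived from sequencing read proportions per bin multiplied by bin number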
Conditions: c terminus: a fixed tail appended
Note: every record was labeled by where its protein stability index sits among band A: < 3; band B: ≥ 3 and < 4; band C: ≥ 4

Example entries and their recorded answers appear below.
> print(dat)
                     sequence.code   class
1  WIHCFEGVTAIITCVALSDYDLVL [F13T]  band A
2  WIHCFEGVTAISFCVALSDYDLVL [I12S]  band A

INPUT: Please indicate the class for WIHCFEGVTAIIFCVAYSDYDLVL [L17Y] based on its protein stability index.
OUTPUT: band A

INPUT: Cool, now WIHCFEGVTAIIFCVALSDYNLVL [D21N]
OUTPUT: band B

INPUT: Could you do the same for WIHCFLGVTAIIFCVALSDYDLVL [E6L] , please?
OUTPUT: band C

INPUT: // next record WIHCFEGVTAIIFCVALSVYDLVL [D19V]
OUTPUT: band B

INPUT: Now give it for WIHCFEGVTAIIFCVAFSDYDLVL [L17F] too.
OUTPUT: band C

INPUT: Next up: WIHCFEGVTAIIFCVALSDEDLVL [Y20E]
OUTPUT: band A

INPUT: // repeat for WIHCFEGLTAIIFCVALSDYDLVL [V8L] and report
OUTPUT: band A

INPUT: Note, next up: WIHCFEGVTAIRFCVALSDYDLVL [I12R]
OUTPUT: band C

INPUT: Note, next up: WIHCFEGVTAIIFCVALSDYKLVL [D21K]
OUTPUT: band B
